Data provenance is the supplement of paper PMC11061612.

Test system: RERF-LC-KJ (Lung Adenocarcinoma)
Test: combination Emax (second highest fraction inhibited in the dose matrix, 72 h); higher = more inhibition; extreme values may be limits of the assay
Parameter combination Emax: see the listing below.
Number, no unit, nothing else.

[in] Fill in the blank: the reported combination Emax of COc1cccc(OCCCN)c1-c1cc(Nc2cnc(C#N)cn2)n[nH]1 [Prexasertib] + C[C@@H]1COCCN1C2=NC(=NC(=C2)C3(CC3)[S@](=N)(=O)C)C4=C5C=CNC5=NC=C4 [AZD6738] (first compound max 1 µM, 7x7, partner max 10 µM) is ____.
[out] 0.278

[in] // repeat for COc1cc2c(cc1OCCCCCOc1cc3c(cc1OC)C(=O)N1C=C(C)C[C@H]1C=N3)N=C[C@@H]1CC(C)=CN1C2=O [SG3199] + O=C(c1cc(Cc2n[nH]c(=O)c3ccccc23)ccc1F)N1CCN(C(=O)C2CC2)CC1 [Olaparib] (first compound max 0.001 µM, 7x7, partner max 10 µM) and report
[out] 0.148

###

System: SNU-175 (Colorectal Carcinoma)
Experiment: combination Emax (second highest fraction inhibited in the dose matrix, 72 h); higher = more inhibition; extreme values may be limits of the assay
Where combination Emax equals or exceeds 0.5, the correct label is true (1); where it does not, the label is false (0).

Below, 3 compounds whose answers are already recorded.
CC1(C)CCC(CN2CCN(c3ccc(C(=O)NS(=O)(=O)c4ccc(NCC5CCOCC5)c([N+](=O)[O-])c4)c(Oc4cnc5[nH]ccc5c4)c3)CC2)=C(c2ccc(Cl)cc2)C1 [Venetoclax] + Cn1cnc2c(F)c(Nc3ccc(Br)cc3Cl)c(C(=O)NOCCO)cc21 [Selumetinib] (first compound max 1 µM, 7x7, partner max 3 µM) ... false (0)
Cc1c2c(nn1C)CSCc1cc(n(C)n1)CSc1cc(c3ccccc3c1)OCCCc1c(C(=O)O)n(C)c3c-2c(Cl)ccc13 [AZD5991] + Cc1cc2ncnn2cc1Nc1ncc2c(n1)n(C1CCOCC1)c(=O)n2C [AZD7648] (first compound max 1 µM, 7x7, partner max 10 µM) ... false (0)
NC1(C(=O)N[C@@H](CCO)c2ccc(Cl)cc2)CCN(c2ncnc3[nH]ccc23)CC1 [Capivasertib] + Cn1cnc2c(F)c(Nc3ccc(Br)cc3Cl)c(C(=O)NOCCO)cc21 [Selumetinib] (first compound max 10 µM, 7x7, partner max 10 µM) ... true (1)

[in] Threshold query (combination Emax >= 0.5) on CN(CCO)CC[C@H](CSc1ccccc1)Nc1ccc(S(=O)(=O)NC(=O)c2ccc(N3CCC([C@@H](O)c4ccccc4-c4ccc(Cl)cc4)CC3)cc2)cc1S(=O)(=O)C(F)(F)F [AZD4320] + Cc1cc2ncnn2cc1Nc1ncc2c(n1)n(C1CCOCC1)c(=O)n2C [AZD7648] (first compound max 1 µM, 7x7, partner max 10 µM)
[out] false (0)

[in] // repeat for COc1cccc(OCCCN)c1-c1cc(Nc2cnc(C#N)cn2)n[nH]1 [Prexasertib] + CCc1c2c(nc3ccc(O)cc13)-c1cc3c(c(=O)n1C2)COC(=O)[C@]3(O)CC [SN-38] (first compound max 1 µM, 7x7, partner max 0.3 µM) and report
[out] true (1)

[in] // repeat for CCc1c2c(nc3ccc(O)cc13)-c1cc3c(c(=O)n1C2)COC(=O)[C@]3(O)CC [SN-38] + CN(C)CCCOc1ccc(-c2ccc3ncc4c(c3c2)n(C2CCOCC2)c(=O)n4C)cn1 [AZD0156] (first compound max 0.3 µM, 7x7, partner max 1 µM) and report
[out] false (0)
